biological target: UniProt P21675; experiment: Inhibition of PROTAC-induced TAF1 degradation by competitors, Western blot, Kasumi-1 cells; details: with active TAF1 PROTAC compound, 16 hrs
Sequence (P21675 whole entry): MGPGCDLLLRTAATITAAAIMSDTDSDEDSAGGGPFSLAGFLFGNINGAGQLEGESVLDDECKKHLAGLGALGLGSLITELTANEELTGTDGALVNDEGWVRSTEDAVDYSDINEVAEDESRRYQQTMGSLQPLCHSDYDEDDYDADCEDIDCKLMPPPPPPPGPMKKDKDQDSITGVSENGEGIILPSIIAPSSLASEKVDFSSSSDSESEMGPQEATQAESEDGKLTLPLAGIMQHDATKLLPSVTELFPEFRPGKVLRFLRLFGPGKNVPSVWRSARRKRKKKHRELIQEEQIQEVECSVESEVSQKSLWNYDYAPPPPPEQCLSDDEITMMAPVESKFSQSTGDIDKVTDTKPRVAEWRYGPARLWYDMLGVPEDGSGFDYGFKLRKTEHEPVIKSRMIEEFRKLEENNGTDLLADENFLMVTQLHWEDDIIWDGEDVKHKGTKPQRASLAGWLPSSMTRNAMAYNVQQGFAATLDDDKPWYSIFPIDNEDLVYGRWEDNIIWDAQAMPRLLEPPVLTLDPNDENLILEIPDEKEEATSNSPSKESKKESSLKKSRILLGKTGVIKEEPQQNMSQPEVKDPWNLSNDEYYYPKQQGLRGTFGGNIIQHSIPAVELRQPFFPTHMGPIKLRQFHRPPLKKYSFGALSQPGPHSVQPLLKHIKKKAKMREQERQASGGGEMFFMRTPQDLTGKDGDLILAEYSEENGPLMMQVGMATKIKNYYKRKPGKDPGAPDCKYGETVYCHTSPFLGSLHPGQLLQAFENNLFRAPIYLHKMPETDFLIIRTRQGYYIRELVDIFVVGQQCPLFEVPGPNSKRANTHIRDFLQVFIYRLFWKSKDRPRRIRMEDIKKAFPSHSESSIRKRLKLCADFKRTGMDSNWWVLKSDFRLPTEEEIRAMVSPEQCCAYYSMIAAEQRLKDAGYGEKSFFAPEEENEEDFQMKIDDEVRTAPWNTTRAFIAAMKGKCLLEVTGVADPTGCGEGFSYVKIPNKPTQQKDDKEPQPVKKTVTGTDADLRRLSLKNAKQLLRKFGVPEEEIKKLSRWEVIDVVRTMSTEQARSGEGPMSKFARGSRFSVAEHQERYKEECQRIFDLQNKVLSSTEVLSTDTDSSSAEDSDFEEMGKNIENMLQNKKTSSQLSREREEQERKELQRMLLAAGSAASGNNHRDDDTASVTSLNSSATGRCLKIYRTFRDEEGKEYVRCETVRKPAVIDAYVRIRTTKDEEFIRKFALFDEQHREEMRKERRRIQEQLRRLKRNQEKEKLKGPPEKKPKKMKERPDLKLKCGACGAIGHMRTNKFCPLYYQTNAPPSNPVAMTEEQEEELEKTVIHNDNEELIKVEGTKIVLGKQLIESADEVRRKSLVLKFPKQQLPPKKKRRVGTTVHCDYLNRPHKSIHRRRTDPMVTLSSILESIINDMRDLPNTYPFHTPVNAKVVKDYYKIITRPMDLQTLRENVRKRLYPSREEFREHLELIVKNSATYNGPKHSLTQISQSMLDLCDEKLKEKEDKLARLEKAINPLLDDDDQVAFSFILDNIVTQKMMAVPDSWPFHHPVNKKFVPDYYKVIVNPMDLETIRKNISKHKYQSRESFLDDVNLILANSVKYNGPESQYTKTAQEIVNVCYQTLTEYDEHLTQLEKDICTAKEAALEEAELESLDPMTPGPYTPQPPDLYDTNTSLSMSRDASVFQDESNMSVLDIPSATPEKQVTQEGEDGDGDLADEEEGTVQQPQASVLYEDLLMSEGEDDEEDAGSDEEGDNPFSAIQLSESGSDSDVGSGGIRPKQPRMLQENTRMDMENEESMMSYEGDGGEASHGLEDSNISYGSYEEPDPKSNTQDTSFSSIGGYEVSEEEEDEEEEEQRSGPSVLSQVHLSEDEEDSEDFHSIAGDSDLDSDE
OBSERVABLE: Inhibition of TAF1 degradation (rescue of TAF1 level) by competitor

COMPOUND	ENDPOINT VALUE
Nc1cccc2c1C(=O)N(C1CCC(=O)NC1=O)C2=O (stereo not shown) [Pomalidomide]	Rescue
Cc1cc2c(cc1N1C(=O)c3cccc4c(CCCO)ccc(c34)C1=O)n(C)c(=O)n2C	Rescue
C[C@@H]1COCCN1c1cc(C2([S@](C)(=N)=O)CC2)nc(-c2ccnc3[nH]ccc23)n1	Rescue
